Where do these numbers come from? They come from patent US20240199546A1.

Target: human SLC6A19 and TMEM27 (Homo sapiens, UniProt Q695T7)
Construct: expressed in transfected cells
Sequence (Q695T7 whole entry): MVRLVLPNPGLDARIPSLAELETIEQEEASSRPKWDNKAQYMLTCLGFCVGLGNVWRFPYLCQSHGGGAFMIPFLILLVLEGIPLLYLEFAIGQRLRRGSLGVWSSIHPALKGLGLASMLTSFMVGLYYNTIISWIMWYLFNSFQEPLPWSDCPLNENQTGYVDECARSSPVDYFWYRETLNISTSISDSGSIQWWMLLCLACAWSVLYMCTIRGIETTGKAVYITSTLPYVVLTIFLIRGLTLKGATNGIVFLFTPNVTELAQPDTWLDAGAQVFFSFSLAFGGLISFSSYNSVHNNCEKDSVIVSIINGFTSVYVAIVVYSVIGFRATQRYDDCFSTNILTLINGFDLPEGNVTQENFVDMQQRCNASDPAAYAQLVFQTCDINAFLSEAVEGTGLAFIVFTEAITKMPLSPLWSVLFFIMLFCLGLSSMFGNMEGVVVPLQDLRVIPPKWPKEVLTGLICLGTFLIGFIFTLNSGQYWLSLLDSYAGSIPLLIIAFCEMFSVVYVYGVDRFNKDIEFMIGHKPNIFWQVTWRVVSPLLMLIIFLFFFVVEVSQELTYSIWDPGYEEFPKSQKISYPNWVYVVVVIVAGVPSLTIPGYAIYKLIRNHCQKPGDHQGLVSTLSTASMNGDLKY
Sequence (Q9HBJ8 15-222 partner): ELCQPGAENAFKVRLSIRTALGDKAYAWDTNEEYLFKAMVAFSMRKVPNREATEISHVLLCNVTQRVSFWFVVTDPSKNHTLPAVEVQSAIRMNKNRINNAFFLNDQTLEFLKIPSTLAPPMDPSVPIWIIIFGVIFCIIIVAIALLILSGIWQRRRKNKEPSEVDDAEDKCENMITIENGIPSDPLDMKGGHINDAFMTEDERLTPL
Assay: Radiolabelled (3H) leucine uptake in CHO cells with doxycycline-inducible expression of human SLC6A19 and TMEM27 (Example B-1)
Format: cell-based
Details: CHO cells with doxycycline-inducible expression of human SLC6A19 and TMEM27, read-out: SLC6A19_Radioligand Uptake Assay IC50
measured.attribute: IC50 (nM)

Guide cases for IC50, answers given:
Query :: For the molecule shown here, CC1(C(=O)NCc2cc3cc(Cl)c(OCc4cccc(O)c4)cc3[nH]2)CC1 , give the reported IC50.
Result :: 2050

Query :: For the molecule shown here, CC1(C(=O)NCc2cc3cc(Cl)c(OCc4cncs4)cc3[nH]2)CC1 , give the reported IC50.
Result :: 307

Query :: For the molecule shown here, O=C(NCc1cc2cc(Cl)c(OCc3ccon3)cc2[nH]1)C1(F)CC1 , give the reported IC50.
Result :: 101

Query :: For the molecule shown here, CC1(C(=O)NCc2cc3ccc(OCC45CC(C4)C5)cc3[nH]2)CC1 , give the reported IC50.
Result :: 9830

Query :: For the molecule shown here, Cc1cc(COc2c(Cl)cc3cc(CNC(=O)C4(C)CC4)[nH]c3c2Cl)no1 , give the reported IC50.
Result :: 3160

Query :: For the molecule shown here, CC1(C(=O)NCc2cc3cc(Cl)c(OCc4cscn4)c(Cl)c3[nH]2)CC1 , give the reported IC50.
Result :: 3910

(I) CC1(C(=O)NCc2cc3cc(Cl)c(OCc4cscn4)cc3[nH]2)CCC1
(II) Cc1cc(COc2cc3[nH]c(CNC(=O)N4CCC(C(F)F)C4)cc3cc2Cl)on1 (stereo not shown)
Query :: Endpoint returns whichever of I and II has the numerically higher IC50. Returns: label corresponding to the selected item.
Result :: II

(1) O=C(NCc1cc2cc(Cl)c(OCc3cscn3)cc2[nH]1)C1CCCC1
(2) CN1CCC1C(=O)NCc1cc2cc(Cl)c(OCc3cscn3)cc2[nH]1 (racemic)
Query :: Hey, between 1 and 2 which has a smaller measured IC50? Returns: label corresponding to the selected item.
Result :: 1
